Measured values drawn from paper PMC9956223 for this set.

- Tested on: α-glucosidase (Yeast)
- assay explanation: Fluorescence quenching (Stern–Volmer) and thermodynamic parameters
- Assay type: binding
- assay setup: 303 K
Consider the following compounds; for each one, report its Kq.
Give bare numbers, in M⁻¹ s⁻¹.

Below, each entry is followed by its recorded Kq result.
Field request: Kq | item: C[C@@H]1O[C@@H](Oc2c(-c3ccc(O)c(O)c3)oc3cc(O)cc(O)c3c2=O)[C@H](O)[C@H](O)[C@H]1O [Quercitrin, quercitrin]
7.87e+12

Look up Kq for this compound: C[C@@H]1O[C@@H](OC[C@H]2O[C@@H](Oc3c(-c4ccc(O)c(O)c4)oc4cc(O)cc(O)c4c3=O)[C@H](O)[C@@H](O)[C@@H]2O)[C@H](O)[C@H](O)[C@H]1O [Rutin]
9.37e+12

What does the record list as Kq for O=c1c(O)c(-c2ccc(O)cc2)oc2cc(O)cc(O)c12 [Kaempferol, kaempferol] ?
4.933e+13

Which Kq value is on record for O=c1c(O)c(-c2ccc(O)c(O)c2)oc2cc(O)cc(O)c12 [Quercetin, quercetin] ?
7.52e+12

Next item in the queue.
What value of measured Kq is listed for O=c1c(O[C@@H]2O[C@H](CO)[C@H](O)[C@H](O)[C@H]2O)c(-c2ccc(O)c(O)c2)oc2cc(O)cc(O)c12 [Hyperoside, hyperoside] ?
8.96e+12
